Data origin: ChEMBL document CHEMBL5523727

- method summary: Metabolic stability in human hepatocyte assessed as intrinsic clearance measured per million cells
- Assay type: ADME, cell-based
- conditions used: hepatocytes, read-out: CLH
assay endpoint: hepatocyte CLint

[
  {
    "molecule": "CC(C)(O)c1cc2nc([C@H]3CC[C@H](CN4CC5(CC(CCNc6cccc7c6C(=O)N(C6CCC(=O)NC6=O)C7=O)C5)C4)CC3)sc2cc1NC(=O)c1cccc(C(F)(F)F)n1 (stereo partly specified) [ZOMIRADOMIDE]",
    "assay endpoint": "hepatocyte CLint",
    "endpoint value": "3.5 µL/min/1e6 cells"
  }
]

----------
- target or system: Cereblon/Ikaros (Homo sapiens, UniProt Q96SW2+Q13422)
- Sequence (Q96SW2 whole entry): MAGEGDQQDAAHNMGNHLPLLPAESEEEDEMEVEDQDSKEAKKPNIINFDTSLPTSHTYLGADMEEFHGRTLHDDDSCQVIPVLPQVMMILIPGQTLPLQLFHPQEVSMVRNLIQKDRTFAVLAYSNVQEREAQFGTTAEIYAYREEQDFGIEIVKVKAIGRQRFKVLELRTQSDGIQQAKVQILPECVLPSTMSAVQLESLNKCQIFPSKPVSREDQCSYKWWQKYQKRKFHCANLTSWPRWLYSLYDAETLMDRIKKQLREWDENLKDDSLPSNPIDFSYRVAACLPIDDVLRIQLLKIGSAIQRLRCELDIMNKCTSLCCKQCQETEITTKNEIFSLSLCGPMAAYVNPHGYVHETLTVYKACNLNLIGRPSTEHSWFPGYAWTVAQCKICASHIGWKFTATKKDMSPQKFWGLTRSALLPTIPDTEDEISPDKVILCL
- Sequence (Q13422 whole entry): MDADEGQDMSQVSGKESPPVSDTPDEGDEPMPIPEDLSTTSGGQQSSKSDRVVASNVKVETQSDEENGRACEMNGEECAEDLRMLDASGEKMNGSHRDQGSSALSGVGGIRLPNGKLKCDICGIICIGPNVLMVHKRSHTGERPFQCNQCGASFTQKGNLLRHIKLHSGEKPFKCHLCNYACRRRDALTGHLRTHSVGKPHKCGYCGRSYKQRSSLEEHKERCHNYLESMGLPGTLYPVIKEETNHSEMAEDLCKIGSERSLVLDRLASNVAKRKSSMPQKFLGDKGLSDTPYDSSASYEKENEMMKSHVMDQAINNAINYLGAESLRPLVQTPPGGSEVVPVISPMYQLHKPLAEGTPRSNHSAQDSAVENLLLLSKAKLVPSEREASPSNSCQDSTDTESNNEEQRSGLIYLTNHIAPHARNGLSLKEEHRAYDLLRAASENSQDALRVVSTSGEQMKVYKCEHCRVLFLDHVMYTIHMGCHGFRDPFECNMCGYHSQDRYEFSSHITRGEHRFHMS
- method summary: PROTAC activity at CRBN/Ikaros in human OCI-Ly10 cells assessed as induction of Ikaros degradation measured after 24 hrs by MSD assay
- Format: cell-based
Listed here are compounds together with their documented DC50.
assay endpoint: DC50 (nM)

[
  {
    "compound": "CN(CCCO[C@H]1C[C@H](Nc2cccc3c2C(=O)N(C2CCC(=O)NC2=O)C3=O)C1)C[C@H]1CC[C@H](n2cc3cc(NC(=O)c4cccc(C(F)(F)F)n4)ccc3n2)CC1 (stereo partly specified)",
    "target or system": "Cereblon/Ikaros (Homo sapiens, UniProt Q96SW2+Q13422)",
    "quantity unit": "nM",
    "sign": "=",
    "endpoint value": 10
  },
  {
    "compound": "O=C1CCC(N2C(=O)c3cccc(NCC4CC5(CCN(C[C@H]6CC[C@H](n7cc8cc(NC(=O)c9cccc(C(F)(F)F)n9)c(C(F)F)cc8n7)CC6)CC5)C4)c3C2=O)C(=O)N1 (stereo partly specified)",
    "target or system": "Cereblon/Ikaros (Homo sapiens, UniProt Q96SW2+Q13422)",
    "quantity unit": "nM",
    "sign": "=",
    "endpoint value": 69
  },
  {
    "compound": "COc1cc2nn([C@H]3CC[C@H](CN(C)CCCO[C@H]4C[C@H](Nc5cccc6c5C(=O)N(C5CCC(=O)NC5=O)C6=O)C4)CC3)cc2cc1NC(=O)c1cccc(C(F)(F)F)n1 (stereo partly specified)",
    "target or system": "Cereblon/Ikaros (Homo sapiens, UniProt Q96SW2+Q13422)",
    "quantity unit": "nM",
    "sign": "=",
    "endpoint value": 28
  },
  {
    "compound": "CN(C[C@H]1CC[C@H](n2cc3cc(NC(=O)c4cccc(C(F)(F)F)n4)c(C(C)(C)O)cc3n2)CC1)[C@H]1CC[C@]2(CC1)C[C@H](Nc1cccc3c1C(=O)N(C1CCC(=O)NC1=O)C3=O)C2 (stereo partly specified)",
    "target or system": "Cereblon/Ikaros (Homo sapiens, UniProt Q96SW2+Q13422)",
    "quantity unit": "nM",
    "sign": "=",
    "endpoint value": 57
  },
  {
    "compound": "CN(CCCCc1cccc2c1C(=O)N(C1CCC(=O)NC1=O)C2=O)C[C@H]1CC[C@H](n2cc3cc(NC(=O)c4cccc(C(F)(F)F)n4)c(C(C)(C)O)cc3n2)CC1 (stereo partly specified)",
    "target or system": "Cereblon/Ikaros (Homo sapiens, UniProt Q96SW2+Q13422)",
    "quantity unit": "nM",
    "sign": ">",
    "endpoint value": 1000
  },
  {
    "compound": "COc1cc2nc([C@H]3CC[C@H](CN4CC5(CC(CCNc6cccc7c6C(=O)N(C6CCC(=O)NC6=O)C7=O)C5)C4)CC3)cn2cc1NC(=O)c1cccc(C(F)(F)F)n1 (stereo partly specified)",
    "target or system": "Cereblon/Ikaros (Homo sapiens, UniProt Q96SW2+Q13422)",
    "quantity unit": "nM",
    "sign": "=",
    "endpoint value": 26
  },
  {
    "compound": "COc1cc2nn([C@H]3CC[C@H](CN4CC5(CC(CCNc6cccc7c6C(=O)N(C6CCC(=O)NC6=O)C7=O)C5)C4)CC3)cc2cc1NC(=O)c1cccc(C(F)(F)F)n1 (stereo partly specified)",
    "target or system": "Cereblon/Ikaros (Homo sapiens, UniProt Q96SW2+Q13422)",
    "quantity unit": "nM",
    "sign": "=",
    "endpoint value": 9
  },
  {
    "compound": "COc1cc2nc([C@H]3CC[C@H](CN4CC5(CC(CCNc6cccc7c6C(=O)N(C6CCC(=O)NC6=O)C7=O)C5)C4)CC3)oc2cc1NC(=O)c1cccc(C(F)(F)F)n1 (stereo partly specified)",
    "target or system": "Cereblon/Ikaros (Homo sapiens, UniProt Q96SW2+Q13422)",
    "quantity unit": "nM",
    "sign": "=",
    "endpoint value": 6
  },
  {
    "compound": "CN(CCCNc1cccc2c1C(=O)N(C1CCC(=O)NC1=O)C2=O)C[C@H]1CC[C@H](n2cc3cc(NC(=O)c4cccc(C(F)(F)F)n4)c(C(C)(C)O)cc3n2)CC1 (stereo partly specified)",
    "target or system": "Cereblon/Ikaros (Homo sapiens, UniProt Q96SW2+Q13422)",
    "quantity unit": "nM",
    "sign": "=",
    "endpoint value": 10
  },
  {
    "compound": "CC(C)(O)c1cc2nc([C@H]3CC[C@H](CN4CC5(CC(CCNc6cccc7c6C(=O)N([C@H]6CCC(=O)NC6=O)C7=O)C5)C4)CC3)sc2cc1NC(=O)c1cccc(C(F)(F)F)n1",
    "target or system": "Cereblon/Ikaros (Homo sapiens, UniProt Q96SW2+Q13422)",
    "quantity unit": "nM",
    "sign": "=",
    "endpoint value": 2
  },
  {
    "compound": "COc1cc2nc([C@H]3CC[C@H](CN4CC5(CC(CCNc6cccc7c6C(=O)N(C6CCC(=O)NC6=O)C7=O)C5)C4)CC3)n(C)c2cc1NC(=O)c1cccc(C(F)(F)F)n1 (stereo partly specified)",
    "target or system": "Cereblon/Ikaros (Homo sapiens, UniProt Q96SW2+Q13422)",
    "quantity unit": "nM",
    "sign": "=",
    "endpoint value": 2
  }
]
